B1: library; numbered along this chain (parent)
chain: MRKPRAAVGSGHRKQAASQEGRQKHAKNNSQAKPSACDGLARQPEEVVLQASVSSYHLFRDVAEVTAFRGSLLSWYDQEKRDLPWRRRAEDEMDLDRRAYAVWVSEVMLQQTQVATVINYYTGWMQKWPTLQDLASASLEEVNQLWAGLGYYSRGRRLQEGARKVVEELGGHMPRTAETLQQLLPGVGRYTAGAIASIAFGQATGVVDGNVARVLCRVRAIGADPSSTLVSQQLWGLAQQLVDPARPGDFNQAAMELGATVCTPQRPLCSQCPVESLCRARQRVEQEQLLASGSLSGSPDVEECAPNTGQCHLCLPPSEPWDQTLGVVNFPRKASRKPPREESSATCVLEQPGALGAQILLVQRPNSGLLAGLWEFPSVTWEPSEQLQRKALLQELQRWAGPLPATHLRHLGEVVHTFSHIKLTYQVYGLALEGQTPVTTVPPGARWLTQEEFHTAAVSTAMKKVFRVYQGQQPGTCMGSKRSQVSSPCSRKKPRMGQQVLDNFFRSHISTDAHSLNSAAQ

Variants of: B1
Test Protocol: 8OG:A repair function score (normalized; synonymous = 0, nonsense = -1) (normalized log-likelihood score); higher = more repair activity (WT-like);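 note: cells sorted at 72 h after reporter transfection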
Condition Notes: with 8OG:A DNA repair reporter (GFP) in HEK-293 MUTYH KO cells
Use 8OG:A repair function score to assign classes; range list: Low (below -0.4), Medium (-0.4 to below -0.05), High (-0.05 or more)

Please review the following examples before continuing.
{"Mutation Annotation": "D300G", "Answer Label": "Medium"}
{"Mutation Annotation": "W321E", "Answer Label": "Medium"}
{"Mutation Annotation": "G258F", "Answer Label": "Low"}
{"Mutation Annotation": "A135Y", "Answer Label": "Medium"}
{"Mutation Annotation": "R98T", "Answer Label": "Medium"}
{"Mutation Annotation": "K3I", "Answer Label": "Medium"}
{"Mutation Annotation": "W374S", "Answer Label": "Low"}
{"Mutation Annotation": "V427K", "Answer Label": "Low"}

# next variant below
Incoming: Which class holds `A89P` ?
Outgoing: High

// provenance: the supplement of paper PMC11908140
